Target: Serum albumin (Homo sapiens, UniProt P02768 P02768:25-609)
Sequence (P02768 25-609, one chain of several): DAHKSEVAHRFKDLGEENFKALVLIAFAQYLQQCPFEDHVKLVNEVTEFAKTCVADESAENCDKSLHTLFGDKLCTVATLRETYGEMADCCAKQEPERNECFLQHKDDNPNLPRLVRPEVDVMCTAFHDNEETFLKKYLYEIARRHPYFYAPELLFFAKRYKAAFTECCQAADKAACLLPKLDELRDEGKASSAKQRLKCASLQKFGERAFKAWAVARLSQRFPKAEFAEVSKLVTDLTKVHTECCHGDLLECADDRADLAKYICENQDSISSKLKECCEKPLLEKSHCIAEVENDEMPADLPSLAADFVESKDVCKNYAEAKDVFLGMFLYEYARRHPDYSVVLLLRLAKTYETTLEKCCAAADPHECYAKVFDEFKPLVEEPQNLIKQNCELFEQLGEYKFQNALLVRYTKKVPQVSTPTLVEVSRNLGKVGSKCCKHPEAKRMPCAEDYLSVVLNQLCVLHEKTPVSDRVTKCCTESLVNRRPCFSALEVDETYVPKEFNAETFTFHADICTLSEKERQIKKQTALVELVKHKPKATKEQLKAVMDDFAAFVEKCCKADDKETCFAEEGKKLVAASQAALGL
Assay: ELONA; specificity control
Conditions: label: hybridized biotin-labeled primer
reported endpoint: binding result

A selection of reference data follows.
TNI-3 (ssDNA) DNA: CTGTCGTTAGTGAAGGTTGGCGGCGGACCGGAACGAGCGGCAGTCGCAGTCGACCCCAACGCCATATCACAGACG :: no binding
IL-10-3 (ssDNA) DNA: TAGGTGCTCGACGCTGACCCACGAAAGACACCGCAGTCCCTCCACGCTACTCAGTCGCAGGTCATG :: no binding
IL-10-6 (ssDNA) DNA: TAGGTGCTCGACGCTGACCGGGCATTGACACCTTATCGTGGGGTGGGGACTCAGTCGCAGGTCATG :: no binding
TNI-4 (ssDNA) DNA: CTGTCGTTAGTGAAGGTTGCCAAGCGAACTGCGACAGGGGATCCAGGAGACGGCCCCAACGCCATATCACAGACG :: no binding

Next binder, binding result to be filled in.
Enquiry: # binding result lookup, item TNI-1 (= TNI-B1, TNI-N1, TNI-MEDI1) (ssDNA) DNA: CTGTCGTTAGTGAAGGTTGGCAACAACGACCGGGACTAACGGCAGCAGCGACACCGGTAACGCCATATCACAGACG
Return: no binding

Values compiled from patent US20140243208.
